test system: M4 (Homo sapiens)
Sequence (P08173 1-479): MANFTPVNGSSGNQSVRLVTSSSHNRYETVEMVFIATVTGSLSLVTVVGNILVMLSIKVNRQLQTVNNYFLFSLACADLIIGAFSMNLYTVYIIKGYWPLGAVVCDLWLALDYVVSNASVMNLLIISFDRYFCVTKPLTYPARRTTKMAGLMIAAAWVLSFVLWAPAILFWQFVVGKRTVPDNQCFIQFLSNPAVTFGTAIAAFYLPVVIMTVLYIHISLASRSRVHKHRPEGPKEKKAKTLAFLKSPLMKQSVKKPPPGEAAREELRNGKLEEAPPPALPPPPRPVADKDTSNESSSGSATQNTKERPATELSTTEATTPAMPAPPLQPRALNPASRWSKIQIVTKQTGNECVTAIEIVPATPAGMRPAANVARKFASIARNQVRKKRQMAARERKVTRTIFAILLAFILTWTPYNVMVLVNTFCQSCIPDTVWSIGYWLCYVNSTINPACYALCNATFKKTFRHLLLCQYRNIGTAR
readout name: Ki (µM)
Express it in µM; write the number only.

Qu. Any idea what its Ki is? The compound is CCC(CO)NCCOc1c(C)cccc1Cl (stereo not shown) [KM-408]
Ans. 15

The measurements presented in this section are drawn from paper PMC9889419.
